Task for the reader: assign each of the following compounds its reported growth.
Tested on: UO-31 renal
Assay: NCI-60 one-dose screen, 48 h (100 = growth as untreated, 0 = no growth, -100 = all killed)
Conditions: 10 µM unless noted
The panel holds about 83,000 compounds, 20% with a hit somewhere; the sample as a whole holds those more often.
Answers are plain numbers, in %.

| item-smiles | test-target | growth, % |
| --- | --- | --- |
| COc1cc(-c2nn(C(=O)NS(=O)(=O)c3ccccc3)cc2-c2ccncc2)ccc1Cl | UO-31 renal | 69.7 |

Would you mind listing growth for each of the following compounds?
1. COc1ccc(S(=O)(=O)n2ccc(-c3ccc4c(c3)CCC(C)(C)O4)n2)cc1OC
2. CC(C)(C)n1cc(-c2ccnc(NCCCNS(=O)(=O)c3ccc(Br)cc3)c2)c(-c2cccc(O)c2)n1

1: 68.5; 2: 39
